System tested: full-length human LRH-1 (Liver Receptor Homolog-1; NR5A2), wild type (human, UniProt O00482 1-541)
Sequence (O00482 whole entry): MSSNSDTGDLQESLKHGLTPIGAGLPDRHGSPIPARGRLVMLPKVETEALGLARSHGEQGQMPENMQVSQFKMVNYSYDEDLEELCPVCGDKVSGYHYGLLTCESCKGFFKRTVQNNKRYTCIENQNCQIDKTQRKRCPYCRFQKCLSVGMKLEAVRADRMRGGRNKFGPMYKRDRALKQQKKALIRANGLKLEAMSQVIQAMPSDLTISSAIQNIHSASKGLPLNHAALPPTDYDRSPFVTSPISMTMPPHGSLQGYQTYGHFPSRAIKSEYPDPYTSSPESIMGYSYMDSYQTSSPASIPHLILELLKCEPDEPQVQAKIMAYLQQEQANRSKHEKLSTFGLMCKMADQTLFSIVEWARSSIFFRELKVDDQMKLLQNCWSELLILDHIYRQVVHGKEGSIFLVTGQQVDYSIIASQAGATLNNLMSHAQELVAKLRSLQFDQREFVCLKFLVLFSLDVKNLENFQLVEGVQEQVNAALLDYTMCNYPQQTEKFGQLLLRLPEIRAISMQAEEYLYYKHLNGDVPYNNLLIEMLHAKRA
Test method notes: fluorescence polarisation
Ends that are not written are not given here.
Value type: pKd
To interpret pKd, take it as minus log10 of a concentration measured in moles per litre.

Recorded pKd for {FAM}-EEPSLLKKLLLAPA [N-terminally FAM-labeled PGC1α co-regulator peptide (740-EEPSLLKKLLLAPA-753)] , please?
5.87
